# System: MOLT-4 leukemia
# assay.remarks: NCI-60 one-dose screen, 48 h
# setup.conditions: 10 µM unless noted
Compounds without any hit were thinned out: in the full panel of roughly 83,000, 20% have a hit. Activity calls are given as the source filed them. Rule for the calls: active = growth percent below 10; inactive = the rest.
Form entry, call: pick from active, inactive

(Q) Short answer needed: outcome of this test for CCOC(=O)/C=C\C(=O)NC(N)=O ?
(A) inactive

(Q) So what was the verdict on CCN1C(=O)N(CC)C2Nn3c(s/c(=C\c4cccc(F)c4)c3=O)=NC21 (stereo not given) in this test?
(A) inactive

(Q) Would you mind telling me which call this test gave CC(C)(C)c1ccc(S(=O)(=O)Oc2ccc3c4c(c(=O)oc3c2)CCCCC4)cc1 ?
(A) inactive

(Q) Dear colleague, could you share the recorded outcome for CCn1cc(C(=O)O)c(=O)c2cc(F)c(N3CCN(S(=O)(=O)c4c(C)cc(C)cc4C)CC3)cc21 when you have a moment?
(A) inactive

(Q) Record lookup: outcome of this test for CCN1C(=O)N(CC)C2C1NN=c1s/c(=C3\C(=O)N(C4CCCC4)c4ccccc43)c(=O)n12 (stereo not given) ?
(A) active

(Q) Answer briefly: the call reported for COC(=O)C(CC(=O)c1ccc(-c2ccccc2)cc1)c1ccccc1 (stereo not given) in this assay.
(A) inactive

(Q) How did this test come out for O=C(CNc1ccc(Cl)cc1)Nc1ccc(-c2nc3ccccc3s2)cc1 ?
(A) active

(Q) Assay outcome for CC(C)(C)OC(=O)N1C/C(=C\c2cccs2)C(=O)/C(=C/c2cccs2)C1 : what was it?
(A) inactive

(Q) Per the records of this test, what outcome belongs to COC(=O)c1cc(-c2cccs2)c(C#N)c(N)c1C#N ?
(A) inactive

(Q) What classification did COc1cc(CNC(=O)CSc2nc3ccccc3c(=O)n2Cc2cc(OC)c(OC)c(OC)c2)cc(OC)c1OC end up with in this test?
(A) inactive

(Q) So what was the verdict on COc1ccc(C(=O)c2cc(OC)c(OC)c(OC)c2)cc1/C=C/C(=O)c1ccc(O)cc1 in this test?
(A) inactive

(Q) What did this assay record as the result for CCn1cc(C(=O)O)c(=O)c2cc(F)c(N3CCN(S(=O)(=O)c4cccc5ccccc45)CC3)cc21 ?
(A) active

(Q) Give the logged outcome of this assay for the following compound: COc1ccc(/C=C2\C(=O)N(C(=O)c3csc(NC(C)=O)n3)N=C2C)cc1
(A) inactive

(Q) Per the records of this test, what outcome belongs to COc1ccc(/C=C\c2cc(OC)c(OC)c(OC)c2)c(NS(=O)(=O)c2ccc(C(C)(C)C)cc2)c1O ?
(A) inactive

(Q) Given O=C1Nc2ccc(Br)cc2C1=N/C=c1\[nH]c(=O)/c(=C/c2ccc(Cl)cc2)s1 , state the outcome it received in this test.
(A) inactive

(Q) What did the test return for Cc1oc2nc[nH]c(=O)c2c1C(=O)/C=C/c1ccc(Cl)cc1Cl ?
(A) inactive

(Q) For COc1cc(C2C=C(C)N=C3SC=C(C)N32)cc(OC)c1OC (stereo not given) , what call appears in the results of this test?
(A) active

(Q) Outcome? CCN(C(=O)c1cc2ncccc2[nH]1)[C@H]1CCC[C@@H](NCc2cccc(F)c2)C1
(A) inactive

(Q) Kindly provide the recorded test outcome for the following compound: O=c1c2cccc3c(Nc4ccc(F)cc4)ccc(c32)c2nc3ccccc3n12
(A) inactive

(Q) // outcome(item) with item = CN(C)c1ccc(-c2ccc(-c3ccc(C(=N)N)cn3)o2)cc1
(A) active

====

# System: SF-268 CNS
# assay.remarks: NCI-60 one-dose screen, 48 h (100 = growth as untreated, 0 = no growth, -100 = all killed)
# setup.conditions: 10 µM unless noted
This is part of a sample that, as a whole, favours compounds with a hit. Of some 83,000 tested, about 20% had one in any assay.
Exercise: state measured growth for each of the molecules provided.
I only need the number, in %, no unit after it.

response.value for O=C(Nc1cc(C(F)(F)F)cc(C(F)(F)F)c1)Nc1ccc(OCc2nnc(-c3ccc(Cl)cc3)o2)c(F)c1 (field: growth) = 25.6

growth recorded for this molecule, Cc1cccc(NC(=O)c2sc3nc4c(cc3c2N)CCC4)c1C , is 35.1

Record CC/C=C\C[C@H](O)C/C=C1/C(=O)C(Cl)=C[C@@H]1C/C=C\CCCC(=O)OC . Reported growth: -35

Note to self: growth recorded for COc1cc2c(cc1OC)C1(C)N(CC2)C(=O)OC1(C)C (stereo unspecified) was 103

Form: molecule = COc1ccc(NC(=O)CSc2nc3ccc(Cl)cc3c(=O)n2-c2ccccc2C(F)(F)F)c(OC)c1OC ; growth = 66.7

Record summary for O=C1CCC/C=C\C[C@H]2C=CC(=O)/C2=C/C[C@H](C/C=C\CC(F)(F)F)O1 : reported growth = -1.48

Record COc1ccc(C(=O)c2cc(OC)c(OC)c(OC)c2)cc1/C=C/C(=O)c1ccc(O)cc1 , field growth: 12.8

In plain terms, O=C1C2=C(C(=O)c3c(O)ccc(O)c31)N(c1cccnc1)Cc1ccccc1O2 has a documented growth of 1.4

Input O=S(=O)(O)CCl . Output growth: 100

Lab note: measured growth of O=S(=O)(NCCCNc1nccc(-c2c(-c3ccccc3)nc3sccn23)n1)c1ccc(F)cc1 was 51

Sure, the documented growth for CCN(C(=O)c1cc2ccccc2[nH]1)[C@H]1CCC[C@@H](NCc2ccc(OC)cc2)C1 is 89.8

// CC(=O)/C=C/c1cc2cc(Cl)ccc2[nH]c1=O : growth value = 81.2

Form: molecule = COc1ccc(NC(=O)/N=c2\oc3c(OC)cccc3cc2-c2cc3ccccc3[nH]2)cc1 ; growth = 70

For reference, reported growth for CCOC(=O)C1=C(C)NC(=O)NC1c1ccc(OCC(=O)N/N=C/c2ccc(Cl)cc2)cc1 (stereo unspecified) stands at 95.1

Lookup result for COc1ccc([N+](=O)[O-])c(/C=C/C(=O)c2ccccn2)c1 ; measured growth: 89.1

Value of measured growth for the entry O=c1oc2cc(OS(=O)(=O)c3ccc(F)cc3)ccc2c2c1CCCCC2 : 86.8

For reference, reported growth for COc1cccc(-c2nc3sccn3c2-c2ccnc(NCCNS(=O)(=O)c3ccccc3)n2)c1 stands at 62.7

# growth (molecule: OCc1c(-c2ccccc2)nc2sccn12 ) is 102

growth recorded for this molecule, COc1ccc(NC(=O)CSc2nc3ccccc3c(=O)n2Cc2cc(OC)c(OC)c(OC)c2)cc1 , is 85.1

Per the record, CC(C)C(C(=O)CCN(C)C)c1ccc(Cl)cc1 (stereo unspecified) has growth of 100

Recorded growth (molecule Cc1c(C2=NNC(c3ccc4c(c3)OCO4)C2)[n+]([O-])c2ccccc2[n+]1[O-] (stereo unspecified) ): 114

====

# System: RPMI-8226 leukemia
# assay.remarks: NCI-60 one-dose screen, 48 h
# setup.conditions: 10 µM unless noted
This is part of a sample that, as a whole, favours compounds with a hit. Of some 83,000 tested, about 20% had one in any assay. The source made the active and inactive calls. The calls were made as follows: active = growth percent below 10; inactive = the rest.
// classify into Y (active), N (inactive)

(Q) Status in this test for Cc1c(C2=NNC(c3ccc4c(c3)OCO4)C2)[n+]([O-])c2ccccc2[n+]1[O-] (stereo unspecified) ?
(A) N

(Q) Answer briefly: the call reported for COc1ccc2c(c1)C(=O)/C(=C/c1ccc(O)cc1)O2 in this assay.
(A) N

(Q) In this assay, the call recorded for Cc1ccc(C(=O)c2sc3nc4c(cc3c2N)CCCC4)c(C)c1 was what?
(A) Y

(Q) Tell me the recorded outcome of this test for CC/C=C\C[C@H](O)C/C=C1/C(=O)C(Cl)=C[C@@H]1C/C=C\CCCC(=O)OC .
(A) Y

(Q) Status in this test for CC(C)(C)c1cn2cccc(C(=O)N3CCN(CC(=O)Nc4ccc(Cl)cc4C(=O)c4ccccc4Cl)CC3)c2n1 ?
(A) N

(Q) For COc1ccc2c(c1)NC(=O)CN2c1nc(NC2CC2)nc2ccccc12 , what call appears in the results of this test?
(A) N

(Q) What did the test return for C/C1=C\CCC2(C)OC2CC2CCC(C)(O)C(CC1)C2(C)C (stereo unspecified) ?
(A) N

(Q) State the result this test recorded for C=C1C(=O)O[C@H]2[C@H]1CC/C(COC(=O)NCc1cc(OC)c(OC)c(OC)c1)=C\CC[C@@]1(C)O[C@@H]21 .
(A) N

(Q) Hey, what did the test say about COc1cc2c3c(c(=O)oc2cc1OS(=O)(=O)c1ccc(C(F)(F)F)cc1)CCCCC3 ?
(A) N

(Q) What outcome does the record of this test show for COc1ccc(NC(=O)CSc2nc3ccccc3c(=O)n2-c2ccccc2C(F)(F)F)c(OC)c1OC ?
(A) N

(Q) Each compound tested received a call. Report the one for COc1ccc(/C=C2\C(=O)N(C(=O)c3csc(NC(C)=O)n3)N=C2C)cc1 .
(A) N

(Q) Recorded call for COc1ccc(OC)c(-c2ccc(-c3ccccc3N)c3[nH]c4ccccc4c23)c1 ?
(A) N

(Q) // outcome(item) with item = CCC(=O)Nc1ccccc1C#C/C=C\C#Cc1ccccc1SC
(A) N

(Q) Please let me know the test result on file for CC(=O)/C=C/c1cc2cc(Cl)ccc2[nH]c1=O .
(A) N

(Q) // outcome(item) with item = COc1cc(OC)c(C(=O)/C=C/c2cccc(C(F)(F)F)c2)c(OC)c1
(A) Y

(Q) What did this assay record as the result for COc1ccc(-c2cn[nH]c2-c2cc(OC)c3c(c2)OCO3)cc1 ?
(A) Y

(Q) Record request — test call for c1ccc2nc(-c3ccc4ccccc4n3)ccc2c1
(A) N

(Q) Tell me the assay call for CNC(=O)c1cc(Oc2ccc3c(c2)sc2nc(-c4ccc(Cl)cc4)cn23)ccn1 please.
(A) N

(Q) Dear all, I need the recorded test outcome for COc1ccc(/C=N/NC(=O)Cn2c(Cc3cccc4ccccc34)nc3ccccc32)cc1 , thank you.
(A) N

(Q) For this compound, state the assay outcome: CC1(C)OC2COC3(C(=O)O)OC(C)(C)OC3C2O1 (stereo unspecified)
(A) N

(Q) Kindly provide the recorded test outcome for the following compound: COc1ccc(/C=C/c2nc(N3CCOCC3)c3nc(Cl)c(Cl)cc3n2)cc1OC
(A) N
